tested on: Fibroblast; assay: Multiplex assay against human fibroblast; assay type: toxicity, cell-based; conditions: 48 h, 10 µM, compound concentration 10 uM, replicate 2
Measure Name: Population Fragmented Nuclei (%)
Just the number please, in %, no unit attached.

In the examples that follow, each entry is paired with its recorded Population Fragmented Nuclei (%).
COc1c(Nc2ccc(S(C)(=O)=O)nc2C)ncnc1OC1CCN(C(=O)OC(C)C)CC1: 56
COCCCN1CCC(NC(=O)c2cc(Cl)c(N)c3c2OCC3)CC1 [PRUCALOPRIDE]: 34

Okay, next one:
Briefly, Population Fragmented Nuclei (%) measured for "CN1CCC(C(=O)c2cccc(NC(=O)c3c(F)cc(F)cc3F)n2)CC1" : 36

----------
Recorded Population Mitochondria Different-Phenotype (%) for the following compounds
system: Fibroblast; experiment: Multiplex assay against human fibroblast; format: toxicity, cell-based; conditions: 12 h, 10 µM, compound concentration 10 uM, replicate 2
Form entry: value (%) — number only.

Record excerpt, results attached:
O=C(Nc1cc(-c2ccccc2)nn1-c1ccccc1F)c1ccc([N+](=O)[O-])cc1: 3
Nc1nc(-c2ccco2)c2cnn(Cc3ccccc3F)c2n1: 13
CSc1nc(NC2CCCC2)c([N+](=O)[O-])c(NC2CCCC2)n1 [GS-39783]: 16

Fibroblast Population Mitochondria Different-Phenotype (%) of CCCCCCNC(=O)Nc1ccc(S(=O)(=O)Nc2ccc(CCNC[C@H](O)COc3ccc(O)cc3)cc2)cc1 [L-755507] is 19

Observed Population Mitochondria Different-Phenotype (%) on Fibroblast, entry O=c1ccc2ccc(OCCCCN3CCN(c4cccc5sccc45)CC3)cc2[nH]1 [BREXPIPRAZOLE] , equals 25

Considering "Cc1cc(O)c(-c2ccc([C@@H](C)CN(C)C)cc2)c2c1[nH]c(=O)c1sccc12" , its Population Mitochondria Different-Phenotype (%) with Fibroblast was recorded as 19

----------
system: HEK-293T; test: Multiplex assay against HEK293T; format: toxicity, cell-based; conditions: human, 24 h, 10 µM, compound concentration 10 uM, replicate 2
Measure Name: Population Fragmented Nuclei (%)
The figure you give is taken to be in %; do not add the unit.

CN1CCN(c2ccc(Nc3c4ccccc4nc4ccccc34)cc2)CC1.Cl.Cl.O: 45
CCC(=O)OCC(=O)[C@@]1(OC(=O)CC)[C@@H](C)C[C@H]2[C@@H]3CCC4=CC(=O)C=C[C@]4(C)[C@@]3(Cl)[C@@H](O)C[C@@]21C [BECLOMETHASONE DIPROPIONATE]: 5
CN1CCN2c3ccccc3Cc3ccccc3C2C1.Cl (centres undefined) [MIANSERIN HYDROCHLORIDE]: 5

Consider now this further compound.
Lookup result for "CC(C)(O)C(=O)N1CCN(c2ccc(C(F)(F)F)c(C3=C(c4c[nH]c5ccccc45)C(=O)NC3=O)c2)CC1" ; measured Population Fragmented Nuclei (%): 2

----------
system: Fibroblast; assay: Multiplex assay against human fibroblast; format: toxicity, cell-based; conditions: 12 h, 1 µM, compound concentration 1 uM, replicate 1
Measure Name: Population Membrane Permeable-Phenotype (%)
Provide the reading as a plain figure in %.

COC(c1ccccc1)(c1ccccc1)[C@H](Oc1nc(C)cc(C)n1)C(=O)O [AMBRISENTAN]: 0
CCc1nn2c(C)cc(C)nc2c1Cc1ccc(-c2nnc(C3CCNCC3)o2)cc1: 2
C[C@H](NC(=O)CNC(=O)c1cccc(Cl)c1)c1ccccc1: 0
Cc1cc(=O)n(C)c2cc(N3C(=O)CC[C@H](NS(=O)(=O)CC(C)C)[C@H]3c3ccc(Cl)cc3)ccc12: 0
O=C(Nc1cc(-c2ccccc2)nn1-c1ccccc1F)c1ccc([N+](=O)[O-])cc1: 1
C[C@@H]1CC(=O)Nc2cccc(-c3ccc4c(c3)c(-c3cnn(C)c3)nn4C)c2N1: 0
COc1cc(OC2CCN(C(C)=O)CC2)ccc1C(=O)N1CCC(N2C(=O)OCc3ccccc32)CC1: 2
CCC(=O)OCC(=O)[C@@]1(OC(=O)CC)[C@@H](C)C[C@H]2[C@@H]3CCC4=CC(=O)C=C[C@]4(C)[C@@]3(Cl)[C@@H](O)C[C@@]21C [BECLOMETHASONE DIPROPIONATE]: 1
CCn1c(-c2nc3cc(C(=O)N4CCCC(N)C4)ccc3n2C)cc2ccccc21.Cl (stereo not given): 0
O=C(NCCNCC(O)COc1ccc(O)cc1)N1CCOCC1.O=C(NCCNCC(O)COc1ccc(O)cc1)N1CCOCC1.O=C(O)/C=C/C(=O)O (stereo not given) [XAMOTEROL FUMARATE]: 1

With those in mind, consider the next compound.
The compound listed as CCCCCCNC(=O)Nc1ccc(S(=O)(=O)Nc2ccc(CCNC[C@H](O)COc3ccc(O)cc3)cc2)cc1 [L-755507] has a reported Population Membrane Permeable-Phenotype (%) of 3
